All values here come from PubChem BioAssay (NCATS).

System: Tov112D
Experiment Description: Primary qHTS to identify gynecologic anti-cancer compounds using libraries of approved drugs and bioactive compounds (AID 1345084); also: % is scaled to controls: 0 for no effect and ±100 for the full control effect; nearly all actives have a fitted effect of over 55% in size
Run Conditions: Gynecologic cancer cell panel viability, ATPlite luminescence, 48 h; series mostly up to 57.5 µM
Results filed as inconclusive are left out. Activity calls are given as the source filed them. Calls follow the shape of the dose curve; as a rule, active = well fitted cell-killing curve with a large enough effect; inconclusive = small, poorly fitted or top-dose-only effect, or effect the other way; inactive = flat fitted curve, though single readings scatter.
Output constraint: value belongs to t (active), f (inactive)

Reference set (3 entries):
C/C1=C\CCC(C)CCO[C@@H]2O[C@H](CO[C@@H]3OC[C@H](O)[C@H](O)[C@H]3OC1=O)[C@@H](O)[C@H](O)[C@H]2O (some centres not stated) : f
CCN(CC)c1ccc2c(O)c(C=Nc3ccc(CC(=O)O)c(-c4c5c(nc6ccccc46)CCC(C(=O)NN)C5)c3)c(=O)oc2c1 (configuration not stated) : f
COc1c(/C=C/C(C)(C)O)ccc2c1C(=O)OCc1cc(C)cc(O)c1O2 : f

Now consider a different compound.
// return assay outcome for `O=S(=O)(c1ccc(S(=O)(=O)n2cnc3ccccc32)cc1)N1CCCCCC1` f

---

Test system: CRL-7250
Experiment Description: Cytotoxic Profiling of Annotated Libraries Using Quantitative High-Throughput Screening (AID 1296008); also: nearly all actives have a fitted effect of over 60% in size
Run Conditions: Five cell lines viability, CellTiter-Glo ATP luminescence, 48-72 h
Records with an inconclusive call do not appear. The source made the active and inactive calls. Calls come from the whole dose curve; as a rule, active = well fitted inhibition curve with a large enough effect; inconclusive = small, poorly fitted or top-dose-only effect; inactive = flat fitted curve, though single readings scatter.
Output constraint: value belongs to active, inactive

Reference set (5 entries):
COc1c2c(c(C)c3c1C(=O)OC3)O[C@@]1(C)CC(O)C(C(C)(C)O)[C@](C)(CCC(=O)O)[C@H]1C2 (some centres not stated) : inactive
C[C@@H]1O[C@@H](O[C@H]2[C@@H]3C=CO[C@@H](O[C@@H]4O[C@H](CO)[C@@H](O)[C@H](O)[C@H]4O)[C@@H]3[C@@]3(CO)O[C@@H]23)[C@H](OC(=O)/C=C/c2ccc(O)c(O)c2)[C@H](O)[C@H]1O : inactive
C#CCN(Cc1cc2c(=O)n(C)c(CN3CCN(C)CC3)nc2cc1Cl)c1ccc(C(=O)NCc2cccnc2)cc1 : active
Cc1c(C(=O)N2CCOc3ccc(-c4ccc(N)nc4)cc3C2)ccc(S(C)(=O)=O)c1F : active
COc1cc(N2CCC(N3CCN(C)CC3)CC2)ccc1Nc1ncc(Cl)c(-c2c[nH]c3ccccc23)n1 : active

// return assay outcome for `Cc1cc(O)c(-c2ccc([C@@H](C)CN(C)C)cc2)c2c1[nH]c(=O)c1sccc12` active

// return assay outcome for `O=C(CSc1nc2c(c(=O)n1-c1ccccc1)SCC2)Nc1ccc(-c2ccccc2)cn1` active

// return assay outcome for C=C1C(=O)O[C@@H]2C[C@H](C)[C@@]3(O)C=C(C(C)=O)[C@]4(CC3C[C@H]12)C(=O)O[C@H]1C[C@@H](C)C(CCC(C)=O)=CC[C@H]14 (some centres not stated) inactive

// return assay outcome for CC1OC(OC2CCC3(C)C(CCC4(C)C3CC=C3C5CC(C)(C)CCC5(C(=O)OC5OC(CO)C(O)C(O)C5O)CCC34C(=O)O)C2(C)C)C(O)C(O)C1O (configuration not stated) inactive

// return assay outcome for COc1cc(Nc2nc3c(s2)CCCC3c2ccc(F)cc2)ccc1-n1cnc(C)c1 (configuration not stated) active

// return assay outcome for `COCCOc1cnc2ccn([C@H](C)c3nnc4c(F)cc(-c5cnn(C)c5)cn34)c(=O)c2c1` inactive

// return assay outcome for `CN1CCN(c2ccc(C(=O)Nc3n[nH]c4ccc(Cc5cc(F)cc(F)c5)cc34)c(NC3CCOCC3)c2)CC1` active

---

Test system: JEG-3
Experiment Description: Primary qHTS to identify gynecologic anti-cancer compounds using libraries of approved drugs and bioactive compounds (AID 1345084); also: % is scaled to controls: 0 for no effect and ±100 for the full control effect; nearly all actives have a fitted effect of over 55% in size
Run Conditions: Gynecologic cancer cell panel viability, ATPlite luminescence, 48 h; series mostly up to 57.5 µM
Description: National Center for Advancing Translational Sciences [NCATS] Assay Overview: Chemotherapeutic drug responses vary from cancer to cancer and from patient to patient. […] ATPlite is a luminescence based assay reliant on the conversion of a luciferase substrate to light in the presence of ATP. As a cytotoxic compound will suppress growth and decrease the number of cells, the concentration of ATP will decrease, and less light signal will be detected in the well. […]
Inconclusive results are not listed. The source made the active and inactive calls. Calls come from the whole dose curve; as a rule, active = well fitted cell-killing curve with a large enough effect; inconclusive = small, poorly fitted or top-dose-only effect, or effect the other way; inactive = flat fitted curve, though single readings scatter. *1 amine or outer side, *2 acyl side, *3 side chain or, on linkers, in order; H or OH if unused. Where a SMILES comes first, the peptide text is derived from it. [ ]: non-standard residue; d: D form. X4 = CC(C)=CCc1cc(C(O)C(N[*:1])C(=O)[*:2])ccc1O
Metric Name: activity change, negative = cytotoxicity

Guide cases for activity change, negative = cytotoxicity, answers given:
C=C(C)C(=O)OC1CC2(C)OC(=CC2=O)C(=C)CC2OC(=O)C(COC)C12 (configuration not stated) : inactive
CC1(C)CC[C@]2(C(=O)O[C@@H]3O[C@H](CO)[C@@H](O)[C@H](O)[C@H]3O)CC[C@]3(C)C(=CCC4[C@@]5(C)CC[C@H](O[C@@H]6O[C@H](C(=O)O)[C@@H](O)[C@H](O[C@@H]7O[C@H](CO)[C@H](O)[C@H](O)[C@H]7O)[C@H]6O)C(C)(C)C5CC[C@]43C)C2C1 (some centres not stated) : 4.29% [at 11.6 µM] (inactive)
C/C1=C\CC[C@H](C)CCO[C@@H]2O[C@H](CO[C@@H]3OC[C@](O)(COC1=O)[C@H]3O)[C@@H](O)[C@H](O)[C@H]2O : inactive
CC(C)=CCc1cc(C(O)C2NC(=O)CNC(=O)C(Cc3c[nH]c4ccccc34)NC(=O)C3CCCN3C(=O)CNC(=O)C(C(C)C)NC(=O)CNC2=O)ccc1O (configuration not stated) (cyclo(G[X4]GVGPW); configuration not given here) : 7.66% [at 11.6 µM] (inactive)
CCC(Nc1ncnc2nc[nH]c12)c1nc2cccc(F)c2c(=O)n1-c1ccccc1 (configuration not stated) : inactive

The reported value for `COC(=O)c1cc(OC)c(O[C@@H]2O[C@@H](C)[C@H](O)[C@@H](O)[C@H]2O)c(OC)c1` in terms of activity change, negative = cytotoxicity is inactive

The reported value for `COc1ccc(C(=O)C2CCN(CC(=O)N(Cc3nc4c(c(=O)[nH]3)COCC4)CC3CC3)CC2)cc1` in terms of activity change, negative = cytotoxicity is inactive

The reported value for CCOC(=O)C(CCc1ccccc1)NC(C)C(=O)N1C(=O)N(C)CC1C(=O)O (configuration not stated) in terms of activity change, negative = cytotoxicity is inactive

The reported value for C=C(C)C1Cc2cc(C(=O)OC3OC(CO)C(O)C(O)C3O)ccc2O1 (configuration not stated) in terms of activity change, negative = cytotoxicity is inactive

The reported value for CC(O)/C=C/C1C(C)C(O[C@@H]2O[C@H](CO)[C@@H](O)[C@H](O)[C@H]2O)C(O)CC1(C)C (some centres not stated) in terms of activity change, negative = cytotoxicity is inactive

---

Entries and their measured max response follow.
Test system: HaCat
Experiment Description: Cytotoxic Profiling of Annotated Libraries Using Quantitative High-Throughput Screening (AID 1296008); also: nearly all actives have a fitted effect of over 60% in size; as to max response: % is scaled to controls: 0 for no effect and ±100 for the full control effect
Run Conditions: Five cell lines viability, CellTiter-Glo ATP luminescence, 48-72 h; active compounds read low
Inconclusive results are not listed.
Entry rule: numbers only, all in %.

Guide cases for max response, answers given:
CO[C@H]1C[C@@H]2CC[C@@H](C)[C@@](O)(O2)C(=O)C(=O)N2CCCC[C@H]2C(=O)O[C@H]([C@H](C)C[C@@H]2CC[C@@H](OP(C)(C)=O)[C@H](OC)C2)CC(=O)[C@H](C)/C=C(\C)[C@@H](O)[C@@H](OC)C(=O)[C@H](C)C[C@H](C)/C=C/C=C/C=C/1C : -0.379
CC1OC(OC2C(O)C(OC3CCC4(C)C(CCC5(C)C4CC=C4C6CC(C)(COC7OC(CO)C(O)C(O)C7O)CC(O)C6(C)CCC45C)C3(C)C)OC(C(=O)O)C2O)C(O)C(O)C1OC1OCC(O)C(O)C1O (stereo unspecified) : -5.35
CC(C)(C)C(=O)CN1C(=O)[C@H](NC(=O)Nc2cccc(C(=O)O)c2)CN(C2CCCCC2)c2ccccc21 : -3.07
N#Cc1ccc2[nH]cc(CCCCN3CCN(c4ccc5oc(C(N)=O)cc5c4)CC3)c2c1 : -11.5
CC(C)CC1NC(=O)C2CC3(O)c4ccccc4NC3N2C1=O (stereo unspecified) : -17.2

The record that follows has no max response shown yet.
The reported value for C=C1C(=O)O[C@H]2C1[C@H](OC(=O)/C(=C/CO)COC(=O)/C(C)=C/CO)CC(=C)[C@@H]1CC(=O)[C@@H](C)[C@@H]12 (stereo partly specified) in terms of max response is -52.7

---

Test system: NIH3T3
Experiment Description: Cytotoxic Profiling of Annotated Libraries Using Quantitative High-Throughput Screening (AID 1296008); also: nearly all actives have a fitted effect of over 60% in size; as to max response: % is scaled to controls: 0 for no effect and ±100 for the full control effect
Run Conditions: Five cell lines viability, CellTiter-Glo ATP luminescence, 48-72 h; active compounds read low
Results filed as inconclusive are left out.
Entries and their measured max response follow.
Entry rule: numbers only, all in %.

The reported value for `C=C(F)c1sc(CNCCCNc2cc(=O)c3ccccc3[nH]2)c(C)c1Br` in terms of max response is -1.77

The reported value for `OC[C@H]1O[C@@H](OC[C@H]2O[C@@H](OC/C=C/c3ccccc3)[C@H](O)[C@@H](O)[C@@H]2O)[C@@H](O)[C@@H]1O` in terms of max response is 2.42

The reported value for CC1(C)CCC2(C(=O)OC3OC(CO)C(O)C(O)C3O)CCC3(C)C(=CCC4C5(C)CCC(O)C(C)(C(=O)O)C5CCC43C)C2C1O (configuration not stated) in terms of max response is 0.934

The reported value for `C[C@H]1CC(=O)Nc2cccc(-c3cnn(C(C)(C)C)c3)c2N1` in terms of max response is -7.27

The reported value for CC(C(O)/C=C/C(C)(C)O)C1CCC2(C)C3C(=O)C=C4C(CCC(O)C4(C)C)C3(C)CCC12C (configuration not stated) in terms of max response is 4.41

The reported value for `CC(=O)O[C@@H]1[C@@H](OC(=O)/C=C/c2ccccc2)[C@@H](OC(C)=O)[C@H](O[C@H]2[C@@H]3C=CO[C@@H](O[C@@H]4O[C@H](CO)[C@@H](O)[C@H](O)[C@H]4O)[C@@H]3[C@@]3(CO)O[C@@H]23)O[C@H]1C` in terms of max response is -0.931

The reported value for C=C(C)C1CC[C@]2(C(=O)O)CC[C@]3(C(=O)O)[C@H](CCC4[C@@]5(C)CC[C@H](O)C(C)(C)C5CC[C@]43C)C12 (some centres not stated) in terms of max response is -12.2
